Origin of the recorded values: the RNAGym collection of RNA variant scans (doi:10.1073/pnas.2313332121)

B1: TPR 5TU (parent)
chain: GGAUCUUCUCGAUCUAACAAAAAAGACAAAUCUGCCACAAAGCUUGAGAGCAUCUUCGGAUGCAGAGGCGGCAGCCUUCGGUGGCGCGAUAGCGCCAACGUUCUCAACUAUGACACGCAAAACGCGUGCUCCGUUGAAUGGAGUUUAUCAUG

# Variants of: B1
# test.name: polymerase ribozyme fitness, log enrichment relative to wild type (log ratio); higher = more active; in vitro selection for triplet polymerase activity
Variants at the floor of the assay were thinned out.
value.type: polymerase ribozyme fitness (log ratio)
Give the figure by itself; no unit, no explanation.

Examples with their reported polymerase ribozyme fitness (log ratio) follow.
[
  {
    "mutant": "A3U G58A C96G",
    "polymerase ribozyme fitness (log ratio)": -1.09
  },
  {
    "mutant": "C103G",
    "polymerase ribozyme fitness (log ratio)": -1.4
  },
  {
    "mutant": "U33C A41C",
    "polymerase ribozyme fitness (log ratio)": -3.48
  },
  {
    "mutant": "A52C G84A U130C",
    "polymerase ribozyme fitness (log ratio)": -0.715
  },
  {
    "mutant": "C57U C131U",
    "polymerase ribozyme fitness (log ratio)": 1.26
  },
  {
    "mutant": "U13C",
    "polymerase ribozyme fitness (log ratio)": -0.269
  },
  {
    "mutant": "G124U G136A",
    "polymerase ribozyme fitness (log ratio)": 0.382
  },
  {
    "mutant": "C35U C57A",
    "polymerase ribozyme fitness (log ratio)": 0.0108
  },
  {
    "mutant": "C54A G70A",
    "polymerase ribozyme fitness (log ratio)": -3.79
  },
  {
    "mutant": "C63G A98U C99U",
    "polymerase ribozyme fitness (log ratio)": 0.639
  }
]

Return reported polymerase ribozyme fitness (log ratio); argument: A47U C51U C87U A113U G152A
-3.99

Return reported polymerase ribozyme fitness (log ratio); argument: C69A G70C
-3.18

Return reported polymerase ribozyme fitness (log ratio); argument: G84A A97U U134A
-3.23

Return reported polymerase ribozyme fitness (log ratio); argument: A16G G46U U55A C85A C105A
-4.14

Return reported polymerase ribozyme fitness (log ratio); argument: G48A C93G
-3.69
